target: UniProt:Q9UGL1; test: KDM5B TR-FRET Enzyme Activity Assay; conditions: LANCE TR-FRET; 5 nM full-length recombinant KDM5B; ten point titration 100000 nM to 5.08 nM
Sequence (Q9UGL1 whole entry): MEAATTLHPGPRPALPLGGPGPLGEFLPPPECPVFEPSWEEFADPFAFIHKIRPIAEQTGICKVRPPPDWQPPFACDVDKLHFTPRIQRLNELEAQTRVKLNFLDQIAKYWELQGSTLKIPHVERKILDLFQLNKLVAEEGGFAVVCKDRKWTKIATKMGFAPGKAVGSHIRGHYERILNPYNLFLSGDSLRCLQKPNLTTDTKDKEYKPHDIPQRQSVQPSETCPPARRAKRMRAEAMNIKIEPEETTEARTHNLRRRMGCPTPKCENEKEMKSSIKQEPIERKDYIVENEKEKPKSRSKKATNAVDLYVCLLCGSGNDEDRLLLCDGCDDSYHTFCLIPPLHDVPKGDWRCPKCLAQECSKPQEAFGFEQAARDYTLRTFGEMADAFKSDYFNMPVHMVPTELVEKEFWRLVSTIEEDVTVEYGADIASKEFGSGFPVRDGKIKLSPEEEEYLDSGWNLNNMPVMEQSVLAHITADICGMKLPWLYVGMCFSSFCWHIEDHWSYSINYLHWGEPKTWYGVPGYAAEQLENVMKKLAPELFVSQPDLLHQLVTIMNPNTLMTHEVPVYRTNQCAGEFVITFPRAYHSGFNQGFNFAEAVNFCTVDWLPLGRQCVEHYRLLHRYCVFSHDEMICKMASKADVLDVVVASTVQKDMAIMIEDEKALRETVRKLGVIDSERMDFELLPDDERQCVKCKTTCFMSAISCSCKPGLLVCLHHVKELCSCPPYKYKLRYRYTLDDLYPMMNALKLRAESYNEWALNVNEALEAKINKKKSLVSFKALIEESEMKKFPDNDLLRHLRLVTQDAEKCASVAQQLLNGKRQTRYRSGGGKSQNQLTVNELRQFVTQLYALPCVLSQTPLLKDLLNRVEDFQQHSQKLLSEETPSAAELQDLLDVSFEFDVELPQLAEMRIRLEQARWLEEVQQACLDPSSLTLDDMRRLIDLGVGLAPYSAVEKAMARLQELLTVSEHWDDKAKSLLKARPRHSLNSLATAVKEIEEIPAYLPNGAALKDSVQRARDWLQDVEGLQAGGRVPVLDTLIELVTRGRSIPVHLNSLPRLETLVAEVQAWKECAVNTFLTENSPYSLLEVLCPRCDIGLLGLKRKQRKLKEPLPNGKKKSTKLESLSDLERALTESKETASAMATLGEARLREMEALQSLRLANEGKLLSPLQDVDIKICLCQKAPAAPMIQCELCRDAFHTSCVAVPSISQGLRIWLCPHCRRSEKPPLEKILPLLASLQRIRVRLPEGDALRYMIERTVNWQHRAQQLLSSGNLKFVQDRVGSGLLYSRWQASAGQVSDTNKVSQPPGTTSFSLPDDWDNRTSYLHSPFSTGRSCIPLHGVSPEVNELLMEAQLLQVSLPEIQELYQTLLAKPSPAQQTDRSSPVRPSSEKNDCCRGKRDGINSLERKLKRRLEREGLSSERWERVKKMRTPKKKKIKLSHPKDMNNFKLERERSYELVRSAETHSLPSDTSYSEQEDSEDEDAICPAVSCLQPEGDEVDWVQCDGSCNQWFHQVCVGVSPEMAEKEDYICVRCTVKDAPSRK
measuredQuantity: IC50 (nM)

Check out these entries, answers already filled in.
INSERT INTO assay_data (molecule, endpointvalue) VALUES
  ('CC(C)(C)n1cc(-c2[nH]c3ncnn3c(=O)c2CC(F)(F)F)cn1 [Example 8-39]', 87.1),
  ('CC(C)c1c(-c2cnn(-c3ccc(F)cc3)c2)[nH]c2ncnn2c1=O [Example 11-17]', 6.47),
  ('O=c1cc(-c2ccccc2)[nH]c2ncnn12 [Example 8-5]', 2240),
  ('CNc1ccc(-c2[nH]c3ncnn3c(=O)c2C(C)C)cc1 [Example 11-104]', 43.8),
  ('CCOC(=O)c1[nH]c2ncnn2c(=O)c1C [Example 8-11]', 6740);

I = CC(C)c1c(-c2ccc3ncccc3c2)[nH]c2ncnn2c1=O [Example 11-74]
II = CC(C)c1c(-c2cccc(N3CCOCC3)c2)[nH]c2ncnn2c1=O [Example 11-44]
III = CC(C)c1c(-c2cccc3[nH]ncc23)[nH]c2ncnn2c1=O [Example 11-71]
IV = O=c1cc(-c2ccccc2F)[nH]c2ncnn12 [Example 8-28]
Exercise: # ascending order, key=IC50 Arrange the labels as the request states and list them.
Solution: I, II, III, IV

I = CC(C)c1c(-c2ccc(N3CCN(C)CC3)cc2)[nH]c2ncnn2c1=O [Example 11-106]
II = CC(C)c1c(-c2ccc(C(F)(F)F)nc2)[nH]c2ncnn2c1=O [Example 11-132]
Exercise: Returns: the argument ( I or II ) having the larger IC50. # respond with the chosen item's label
Solution: II

P = CC(C)c1c(-c2ccc(C#N)cc2)[nH]c2ncnn2c1=O [Example 11-38]
Q = CC(C)c1c(-c2ccc(N3CCCCC3)cc2)[nH]c2ncnn2c1=O [Example 11-41]
R = CC(C)c1c(-c2ccc(CO)nc2)[nH]c2ncnn2c1=O [Example 11-130]
Exercise: Thanks in advance: please rank these 3 entries by IC50, highest to lowest. Arrange the labels as the request states and list them.
Solution: R, P, Q
(R: 54.5 nM, P: 21.6 nM, Q: 11.8 nM)

a = COc1ccc(-c2[nH]c3ncnn3c(=O)c2C(C)C)cc1 [Example 11-58]
b = COC(=O)c1ccc(-c2[nH]c3ncnn3c(=O)c2C(C)C)cc1 [Example 11-79]
c = O=c1cc(-c2cccc(Cl)c2)[nH]c2ncnn12 [Example 8-29]
Exercise: Thanks in advance: please rank these 3 entries by IC50, highest to lowest. Arrange the labels as the request states and list them.
Solution: c, a, b

P = CCCn1cc(-c2[nH]c3ncnn3c(=O)c2C(C)C)cn1 [Example 11-21]
Q = CC(C)c1c(-c2ccc(C3CC3)nc2)[nH]c2ncnn2c1=O [Example 11-133]
Exercise: Returns: the argument ( P or Q ) having the larger IC50. # respond with the chosen item's label
Solution: Q
(Q: 44.4 nM, P: 5.08 nM)
